target-or-system: T1, rat serum albumin (rat, UniProt P02770 25-608)
T1 construct: also called RSA
assay-details: SPR, single cycle kinetics, pH 7.4
The following binders are shown together with reported pKd values.
The meaning of pKd here: minus log10 of the concentration in molar units.

query: Report pKd for M79-H4 (VHH) VHH: QVQLVESGGGLVQPGGSLRLSCAASGSTFSSSSVGWYRQAPGQQRELVAAITSGGSTNTADSVKGRFTISRDNSKNTLYLQMNSLRAEDTAVYYCNVAGRNWVPISRYSPGPYWGQGTLVTVSS please.
result: 8.00

query: Report pKd for R28-H5 (VHH) VHH: QVQLVESGGGLVQPGGSLRLSCAASGRTFIAYAMGWFRQAPGKEREFVAAITNFAGGTTYYADSVKGRFTISRDNAKTTVYLQMNSLRAEDTAVYYCAADRSAQTMRQVRPVLPYWGQGTLVTVSS please.
result: 9.40

query: Report pKd for M75-H1 (VHH) VHH: EVQLVESGGGLVQPGGSLRLSCAASGRTFDNYVMAWFRQAPGKGLEFVSSISGSGSITNYANSVKDRFTISRDNSKNTLYLQMNSLRAEDTAVYYCAAGSRRTYYREPKFYPSWGQGTLVTVSS please.
result: 6.18

query: Report pKd for R28-H2 (VHH) VHH: EVQLVESGGGLVQPGGSLRLSCAASGRTFIAYAMGWFRQAPGKEREFVSAITNFAGGTTYYADSVKGRFTISRDNSKNTLYLQMNSLRAEDTAVYYCAADRSAQTMRQVRPVLPYWGQGTLVTVSS please.
result: 8.39
